- Tested Target: recombinant CpLDH protein (Cryptosporidium parvum, UniProt Q9GT92, F198L/K295E/R251K)
Residues, ends and D or L forms follow the SMILES beside them. *: point of attachment. Cbz = O=C(OCc1ccccc1)*; CH2Cl = ClC*
Property Measured: MEAN CpLDH INHIBITION (%)
Entry rule: numbers only, all in %.

Value (MEAN CpLDH INHIBITION (%), recombinant CpLDH protein (Cryptosporidium parvum, UniProt Q9GT92, F198L/K295E/R251K)) for record CC(C)CC(NC(=O)OCc1ccccc1)C(=O)NC(Cc1ccccc1)C(=O)CCl (stereo not drawn) [NSC173904] (Cbz-Leu-Phe-CH2Cl; configuration not given here) = -56.33

---

What follows is a collection of MEAN CpLDH INHIBITION (%) values obtained with recombinant CpLDH protein (Cryptosporidium parvum, UniProt Q9GT92, F198L/K295E/R251K).
Entry rule: numbers only, all in %.

Please review the entries below; each comes with its answer.
Molecule: CCOC(=O)C1=C(C)NC(=S)NC1c1ccccc1 (centres unmarked)
Units: %
MEAN CpLDH INHIBITION (%): -38.49
--
Molecule: Oc1ccc2ccccc2c1N=Nc1cccc2ccccc12
Units: %
MEAN CpLDH INHIBITION (%): -10.08
--
Molecule: OCCNCN(CNCCO)c1nc(N(CNCCO)CNCCO)nc(N(CNCCO)CNCCO)n1
Units: %
MEAN CpLDH INHIBITION (%): -58.42
--
Molecule: NC(=O)C1=C[C@H]2[C@@H]3C=C[C@@]2(O)C(=O)O[C@@H]3O1
Units: %
MEAN CpLDH INHIBITION (%): -9.72
--
Molecule: C/C(NNC(=O)c1ccccc1O)=C1\C=Nc2ccccc2S1
Units: %
MEAN CpLDH INHIBITION (%): 0.03

Value (MEAN CpLDH INHIBITION (%), recombinant CpLDH protein (Cryptosporidium parvum, UniProt Q9GT92, F198L/K295E/R251K)) for record "COc1nc(C(Cl)(Cl)Cl)c(Cl)c(OC)c1Cl" = 0.02

Value (MEAN CpLDH INHIBITION (%), recombinant CpLDH protein (Cryptosporidium parvum, UniProt Q9GT92, F198L/K295E/R251K)) for record "Br.CN(C)c1nc(=NCc2ccco2)ss1" = -22.44

Value (MEAN CpLDH INHIBITION (%), recombinant CpLDH protein (Cryptosporidium parvum, UniProt Q9GT92, F198L/K295E/R251K)) for record CC(C)=CC1C(C(=O)O)C1(C)C (centres unmarked) = -22.15

Value (MEAN CpLDH INHIBITION (%), recombinant CpLDH protein (Cryptosporidium parvum, UniProt Q9GT92, F198L/K295E/R251K)) for record "Br.CCN(CC)CC(C)(C)C(=O)/C=C/c1ccc(C)cc1" = -40.98

---

What follows is a collection of MEAN CpLDH INHIBITION (%) values obtained with recombinant CpLDH protein (Cryptosporidium parvum, UniProt Q9GT92, F198L/K295E/R251K).
Entry rule: numbers only, all in %.

Compound: CC1=C(N2CC2)C(=O)c2nc3n(c2C1=O)CCC3OC(=O)CCl (stereo not shown)
Tested Target: recombinant CpLDH protein (Cryptosporidium parvum, UniProt Q9GT92, F198L/K295E/R251K)
Recorded Measurement: -28.90

Value (MEAN CpLDH INHIBITION (%), recombinant CpLDH protein (Cryptosporidium parvum, UniProt Q9GT92, F198L/K295E/R251K)) for record "CC1=CC(C)(C)N=C2SC(c3ccc(N)cc3)=NN12" = -5.57

Value (MEAN CpLDH INHIBITION (%), recombinant CpLDH protein (Cryptosporidium parvum, UniProt Q9GT92, F198L/K295E/R251K)) for record "Cc1cc(O)c(/C=N/C(N)=S)c(=O)o1" = -13.90

Value (MEAN CpLDH INHIBITION (%), recombinant CpLDH protein (Cryptosporidium parvum, UniProt Q9GT92, F198L/K295E/R251K)) for record "Cc1c2c(cc3c1[nH]c1ccccc13)C=NCC2" = -9.40

---

- Tested Target: recombinant CpLDH protein (Cryptosporidium parvum, UniProt Q9GT92, F198L/K295E/R251K)
Property Measured: MEAN CpLDH INHIBITION (%)
Entry rule: numbers only, all in %.

Please review the entries below; each comes with its answer.
Compound: NP(=O)(Oc1c2occc2cc2ccc(=O)oc12)N(CCCl)CCCl (centres unmarked)
MEAN CpLDH INHIBITION (%): -64.34
//
Compound: CN(CO)c1nc(N(C)CO)nc(N(C)CO)n1
MEAN CpLDH INHIBITION (%): -65.77
//
Compound: CCc1cccc(C(C)C)c1NC(=O)/C(=N\NC(N)=O)C(C(=O)OC)c1cnc2ccccc2n1 (centres unmarked)
MEAN CpLDH INHIBITION (%): -12.26
//
Compound: O=C(O)c1ccc(NC(c2ccccc2)c2ccc3cccnc3c2O)cc1 (centres unmarked)
MEAN CpLDH INHIBITION (%): -0.99

Here is the next item to consider.
Value of MEAN CpLDH INHIBITION (%) reported for the compound O=C1C(C(O)(C(F)(F)F)C(F)(F)F)CCC1C(O)(C(F)(F)F)C(F)(F)F (centres unmarked) is -5.59
